Data origin, for the record: patent US20240409617A1

- measured.on: WT Spike (SARS-CoV2)
Please provide measured pKd for the entries that follow.
// pKd: -log10(molar conc.)

I am curious: what pKd value has been reported for Ab_21 scFv-Fc (scFv, V domains shown) VH: QVQLVQSGGGLVQPGGSLRLSCATSGFTFDDYAMHWVRQAPGKGLEWVSGISWNSGSIGYVDSVKGRFTISRDNRNNKVYLQMNNLRAEDTAVYYCARDWWGSIDHWGLGTLVTVSS VL: QSALTQPRSVSGSPGQSVTISCTGTSSDVGGYDYVSWYQQHPGKAPKLIIYDVSKRPSGVPDRFSGSKSGNTASLTVSGLQAEDEADYYCSSYTSSSPVVFGGGTKLTVL ?
11.03

Which pKd value belongs to Ab_27 scFv-Fc (scFv, V domains shown) VH: QVQLVQSGTEVKKPGASVKVSCKASGYSFTGSHLHWVRQAPGQGLEWMGWINPDSGVINYAQKFQGRVTLTRDTSISTAYMELSGLRSDDTAVYYCARDKAIGYVWALDYWGQGTLVTVSS VL: QSALTQPPSVSGSPGQSVTISCTGTSSDVGTYNRVSWYQQPPGKAPKLMIYEVSNRPSGVSNRFSGSKSGNTASLTISGLQAEDEADYYCSSYTRTFTYVFGTGTKVTVL ?
11.06
